Source of measurements: the supplement of paper PMC4723716

# System: Plasmodium falciparum NF54 gametocytes
# PROCEDURE_DETAILS: viability index relative to DMSO control (fraction); higher = less gametocyte killing
# ASSAY_CONTEXT: gametocyte stage: Stage III viability index; 12.5 µM; incubation time: 72 h
Quick reference for viability index among some molecules
REPORTED_ENDPOINT: viability index

> print(dat)
                                    molecule  reported.endpoint  test.value
 1       CCOC(=O)c1cnc2ccc(Cl)cc2c1NCCCN(C)C    viability index       0.989
 2  Nc1ccn(C2O[C@H](CO)[C@@H](O)[C@H]2O)c(=O)n1 (stereo partly specified)    viability index       0.955
 3  COc1cc(C(=O)ON=C(N)Cc2cccc3ccccc23)cc(OC)c1OC    viability index       0.157
 4           O=C(Nc1ccc(Br)cc1)Nc1cccc(Cl)c1    viability index       0.816
 5  CN1CCN(c2ccc(Nc3c4ccccc4nc4ccccc34)cc2)CC1    viability index      0.0523
 6  O=C(NC1CCCC1)c1ccc(N2CCC(NCc3cccc(C(F)(F)F)c3)CC2)cc1    viability index        0.76
 7  CCCN(CCC)CC(O)COc1ccccc1C(=O)Nc1ccccc1 (stereo unspecified)    viability index        0.46
 8  CCOc1cc(Cl)c(C(C)NC(=O)c2cccc(OC)c2)cc1OCC (stereo unspecified)    viability index       0.143
 9  CC(C)(C)c1ccc(C(=O)Nc2c3c(nn2-c2cccc(Cl)c2)CSC3)cc1    viability index       0.825
10     OCCNc1nc(Nc2ccc(Cl)c(Cl)c2)nc2ccccc12    viability index       0.665
11  Cc1cc(=O)oc2c1ccc1oc(C(=O)c3ccccc3)c(C)c12    viability index       0.867

###

# System: Plasmodium falciparum NF54 gametocytes
# PROCEDURE_DETAILS: viability index relative to DMSO control (fraction); higher = less gametocyte killing
# ASSAY_CONTEXT: gametocyte stage: Stage I viability index; 12.5 µM; incubation time: 72 h
Entries and their viability index
REPORTED_ENDPOINT: viability index

> print(dat)
                                    compound  reported.endpoint  test.value
 1  Cc1cc(Nc2ccc(OCc3ccccc3)cc2)nc2cc(O)ccc12    viability index       0.332
 2  COc1ccccc1N=C1C(=O)c2ccccc2C(O)=C1N1CCCCC1    viability index      0.0188
 3         CN(C)CCNc1cc(-c2ccccc2)nc2ccccc12    viability index       0.685
 4   COc1ccc(-c2nonc2NC(=O)c2cccc(C)c2)cc1OC    viability index        0.62
 5  Cn1c(=O)c2cc(C(=O)NCCCN3CCCCCC3)sc2c2ccccc21    viability index        1.01
 6         O=c1nc(C=Cc2ccc(Cl)cc2)oc2ccccc12    viability index       0.874
 7         O=c1nc(C=Cc2ccc(Br)cc2)oc2ccccc12    viability index       0.838
 8  Cn1c(=O)n(C)c2cc(CNCCNc3ccnc4cc(Cl)ccc34)ccc21    viability index        0.49
 9  Cc1cc(NC(=O)C2c3ccccc3C(=O)N(CC(C)C)C2c2cccs2)no1 (stereo not drawn)    viability index      0.0387
10  CCN(CC)CCn1c(=N)n(CC(O)c2ccc(Cl)c(Cl)c2)c2ccccc21 (stereo not drawn)    viability index     0.00552
11  Cc1sc(NC(=O)c2ccccc2)c(C(c2cccs2)N2CCN(c3ccccc3)CC2)c1C (stereo not drawn)    viability index           1
12  Nc1ccc(-c2nc3cc(Cc4ccc5[nH]c(-c6ccc(N)cc6)nc5c4)ccc3[nH]2)cc1    viability index      0.0227
13        CCC(=O)Nc1nnc(Cc2ccc(OC)c(OC)c2)s1    viability index        1.02
14           COc1ccc2nc(C)cc(Nc3ccccc3O)c2c1    viability index       0.139
15  Cc1c(C)n(CC(O)CNC2CCCCC2C)c2ccccc12 (stereo not drawn)    viability index      0.0939
16    O=C(Nc1ccsc1C(=O)NC1CCCCC1)c1ccc(F)cc1    viability index        0.93
17  Cc1ccnc(NC(c2cccc(OCc3ccccc3)c2)c2ccc3cccnc3c2O)c1 (stereo not drawn)    viability index      0.0271
18  CCOc1ccc(-n2cc(-c3ccccc3)c3c(SCc4cc(C)ccc4C)ncnc32)cc1    viability index        1.12
19  CCOc1cc(Cl)c(C(C)NC(=O)c2cccc(OC)c2)cc1OCC (stereo not drawn)    viability index      0.0343
20  CC(C)c1ccc(CNCC(O)c2ccccc2)cc1 (stereo not drawn)    viability index       0.032
21         CCOc1ccc(N2C(N)=NC(N)=NC2(C)C)cc1    viability index        1.12
22  O=C(NNc1cc(N2CCCC2)nc(N2CCCC2)n1)c1ccccc1    viability index           0
23  O=C(CSc1nccn2nc(-c3ccccc3)cc12)Nc1cc(C(F)(F)F)ccc1Cl    viability index       0.845
24       CN(C)c1ccc(-c2nc3cc(N)ccc3[nH]2)cc1    viability index      0.0873
25       Clc1cc(Br)ccc1-c1ccc(CNCC2CCNCC2)o1    viability index      0.0166
26    CC(=O)NCCc1nc2ccccc2n1Cc1ccc(C(C)C)cc1    viability index       0.788
27  O=C(Nc1cccc(C2=NCCN2)c1)Nc1cccc(C2=NCCN2)c1    viability index       0.565
28  Cc1ccc(N2C3c4ccccc4N(S(=O)(=O)c4ccc(C)cc4)C2c2ccccc2N3S(=O)(=O)c2ccc(C)cc2)cc1    viability index       0.687
29  CCCCC(O)(c1ccc(Cl)cc1)C(CN1CCOCC1)c1ccc(Cl)cc1 (stereo not drawn)    viability index       0.941
30         Cc1ccc(Nc2nc(NCCO)c3ccccc3n2)cc1C    viability index      0.0641
31  CCCCOC(=O)c1ccc(Nc2cc(C)nc3ccc(OC)cc23)cc1    viability index      0.0647
32  CCOc1cc2c(cc1OCC)C(c1cc(Cl)ccc1O)NCC2 (stereo not drawn)    viability index      0.0411
33  Oc1ccc(-c2nc(-c3ccc4oc5ccc(-c6[nH]c(-c7ccc(O)cc7)nc6-c6ccccc6)cc5c4c3)c(-c3ccccc3)[nH]2)cc1    viability index    0.000874
34       CCOC(=O)c1cnc2ccc(Cl)cc2c1NCCCN(C)C    viability index       0.309
35   COc1ccc(Nc2nc(NCc3ccccc3)c3ccccc3n2)cc1    viability index      0.0331
36  COc1cccc(C(=O)NC(c2ccc(C)cc2)c2cc(Cl)c3cccnc3c2O)c1 (stereo not drawn)    viability index       0.116
37  CCOc1ccc(CN2CCN(CC(O)COc3ccc(OCC(O)CN4CCN(Cc5ccc(OCC)cc5)CC4)cc3)CC2)cc1 (stereo not drawn)    viability index       0.076
38  CCOc1ccc(-c2nonc2NC(=O)c2cccc(C)c2)cc1OCC    viability index      0.0619
39  O=C(Nc1ccc(Cl)cc1C(=O)Nc1ccncc1)c1ccc(Cl)cc1Cl    viability index       0.139
40       Cn1c(C(=O)c2cccc3ccccc23)nc2ccccc21    viability index       0.681
41  Cc1cccc(-n2ncc3c(=O)[nH]c(-n4nc(C)cc4NC(=O)c4cc5ccccc5o4)nc32)c1    viability index       0.466
42  CN1CCN(c2ccc(Nc3c4ccccc4nc4ccccc34)cc2)CC1    viability index      0.0453
43  CCN1CCN(Cc2ccc(NC(=O)c3cc4ccc5cccnc5c4[nH]3)cc2)CC1    viability index       0.834

###

# Tested on: Plasmodium falciparum NF54 gametocytes
# PROCEDURE_DETAILS: viability index relative to DMSO control (fraction); higher = less gametocyte killing
# ASSAY_CONTEXT: gametocyte stage: Stage II viability index; 12.5 µM; incubation time: 72 h
// classify: if (viability index < 0.6) true (1) else false (0)

> print(dat)
                                   compound                          assayed.system  label.value
1  CCOc1cc2c(cc1OCC)C(c1cc(OC)c(O)cc1Cl)NCC2 (stereo unspecified)  Plasmodium falciparum NF54 gametocytes     true (1)
2  O=C(Nc1ccccc1O)c1ccc(Oc2cccc(C(=O)Nc3ccccc3O)c2)cc1  Plasmodium falciparum NF54 gametocytes     true (1)
3                CCCc1c(CC)c(=N)c2ccccc2n1C  Plasmodium falciparum NF54 gametocytes    false (0)
4  COc1cc(SC)ccc1C(=O)N1CCCC(C)C1 (stereo unspecified)  Plasmodium falciparum NF54 gametocytes    false (0)
5       CN(C)c1ccc(N2C(N)=NC(N)=NC2(C)C)cc1  Plasmodium falciparum NF54 gametocytes    false (0)
